- TGT: GST-ANAC092(1-176) (Arabidopsis thaliana, UniProt Q9FKA0 1-176)
- Sequence: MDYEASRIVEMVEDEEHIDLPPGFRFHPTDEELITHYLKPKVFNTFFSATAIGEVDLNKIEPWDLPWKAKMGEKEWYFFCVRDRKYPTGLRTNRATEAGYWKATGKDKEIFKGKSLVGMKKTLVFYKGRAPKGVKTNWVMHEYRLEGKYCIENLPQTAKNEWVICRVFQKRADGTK
- TEST METHOD NOTES: universal protein binding microarray (PBM); transcription factors of Arabidopsis thaliana; high values mean tight binding
- ASSAY CONDITIONS: protein: recombinant; tags: GST; chain copies: 2; dsDNA, one strand shown
MEASUREMENT NAME: binding signal (E-score)
One number for each entry, in E-score.

>  <MACROMOLECULE SEQUENCE>
GTTGAGTA

>  <binding signal / E-score>
0.305

$$$$

For every item in the list below, what is its measured binding signal?
1. ACGTAATA
2. CCACGGAA
3. GCGTGCAC

Output:
1: 0.425; 2: 0.219; 3: 0.372

Please give binding signal for each item listed below.
1. AAGCAAAC
2. GTTACGTA

Output:
1. 0.331
2. 0.463

Lab note: each sequence below needs its binding signal filled in.
1. TGAAGCAA
2. ATAGCGTA
3. ACGTTTTC
4. GTACGTCA
5. TGGCGTAA

Output:
1. 0.232
2. 0.437
3. 0.382
4. 0.441
5. 0.44

Your task in this section: give binding signal for each listed record.
1. GCACGTCA
2. ATACGTCA
3. GAACACGC
4. CACGTCAG

Output:
1. 0.449
2. 0.412
3. 0.382
4. 0.336

Batch request: binding signal per item, same order as input.
1. CAAGACCA
2. CACGTCAC
3. TGCGTACA

Output:
1. 0.106
2. 0.445
3. 0.372

Required: binding signal, one value per sequence below.
1. CACGCTTC
2. CCACGCAA
3. GCAAGCAA
4. ACCGTTGA
5. CCACACGC

Output:
1: 0.37; 2: 0.472; 3: 0.367; 4: 0.112; 5: 0.4
